- System: 276233-004-R-J1-PDC complex spheroid viability
- method_description: Anticancer human tumor 276233-004-R-J1-PDC patient-derived colon adenocarcinoma cell line growth inhibition [GQUAD]
- protocol_conditions: curve of first compound; second compound 3.16 µM
reported_property: IC50 (nM)
Return type: number; implicit unit nM.

Qu. What value of IC50 has been reported for the following compound? COc1cc(C2c3cc4c(cc3C(OC3OC5COC(C)OC5C(O)C3O)C3COC(=O)C23)OCO4)cc(OC)c1O (stereo not given) + Cc1[nH]c2ccc(F)cc2c1-c1nc2c3cccnc3c3ncccc3c2[nH]1
Ans. 2820

Qu. Query: IC50; subject: CC(C)(O)C1CCC(Nc2ccc3ncc(-c4cccc(C(F)(F)F)c4)n3n2)CC1 (stereo not given) + CN(C)c1ccc(Nc2c3ccc(NC(=O)CCN4CCCC4)cc3nc3cc(NC(=O)CCN4CCCC4)ccc23)cc1
Ans. 101

Qu. Query (compound): CC1COCCN1c1cc(C2(O)CC3CCC(C2)O3)c2cnn(-c3ccn[nH]3)c2n1 (stereo not given) + Cc1cnc(CNC(=O)c2c(=O)c3ccc(N4CCCN(C)CC4)nc3n3c2sc2ccccc23)cn1 ; field requested: IC50
Ans. 642

----------
Answer each item with its documented viability, T/C.
- Test system: 276233-004-R-J1-PDC complex spheroid viability
- method_description: Anticancer human tumor 276233-004-R-J1-PDC cell line growth inhibition [GQUAD];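 note: spheroids exposed to drugs for seven days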;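 for viability, T/C: 100% = DMSO vehicle control viability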
- protocol_conditions: second compound 0.0316 µM; first compound 10 µM; stronger effect = lower value
// return numeric value only (unit: %, not printed)

Qu. Value lookup for viability, T/C; key = COc1cc(C2c3cc4c(cc3C(OC3OC5COC(C)OC5C(O)C3O)C3COC(=O)C23)OCO4)cc(OC)c1O (stereo not given) + Cc1[nH]c2ccc(F)cc2c1-c1nc2c3cccnc3c3ncccc3c2[nH]1
Ans. 83.7

Qu. Can you share its viability, T/C? I mean this molecule: COc1ncnc(C2CC2)c1-c1ncc2cnn(Cc3ccc(-c4nc(C(F)(F)F)cn4C(C)C)cc3)c2n1 + CN(C)c1ccc(Nc2c3ccc(NC(=O)CCN4CCCC4)cc3nc3cc(NC(=O)CCN4CCCC4)ccc23)cc1
Ans. 100

Qu. Need viability, T/C of CC(C)(O)C1CCC(Nc2ccc3ncc(-c4cccc(C(F)(F)F)c4)n3n2)CC1 (stereo not given) + Cc1cnc(CNC(=O)c2c(=O)c3ccc(N4CCCN(C)CC4)nc3n3c2sc2ccccc23)cn1 , thanks.
Ans. 58.8

Qu. Quick one: viability, T/C of CC(C)(O)C1CCC(Nc2ccc3ncc(-c4cccc(C(F)(F)F)c4)n3n2)CC1 (stereo not given) + CN(C)c1ccc(Nc2c3ccc(NC(=O)CCN4CCCC4)cc3nc3cc(NC(=O)CCN4CCCC4)ccc23)cc1 ?
Ans. 57

Qu. # lookup: viability, T/C of O=c1[nH]cc(F)c(=O)[nH]1 + Cc1[nH]c2ccc(F)cc2c1-c1nc2c3cccnc3c3ncccc3c2[nH]1
Ans. 100

----------
- Test system: 276233-004-R-J1-PDC complex spheroid viability
- method_description: Anticancer human tumor 276233-004-R-J1-PDC cell line growth inhibition [GQUAD];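 note: spheroids exposed to drugs for seven days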;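 for viability, T/C: 100% = DMSO vehicle control viability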
- protocol_conditions: second compound 0.316 µM; first compound 10 µM; stronger effect = lower value
reported_property: viability, T/C (%)
All answers are understood in %, so give the number only.

Qu. So what's the measured viability, T/C for this one? O=c1[nH]cc(F)c(=O)[nH]1 + Cc1[nH]c2ccc(F)cc2c1-c1nc2c3cccnc3c3ncccc3c2[nH]1
Ans. 85.3

Qu. Consider the compound CC1COCCN1c1cc(C2(O)CC3CCC(C2)O3)c2cnn(-c3ccn[nH]3)c2n1 (stereo not drawn) + Cc1cnc(CNC(=O)c2c(=O)c3ccc(N4CCCN(C)CC4)nc3n3c2sc2ccccc23)cn1 and give its measured viability, T/C.
Ans. 32.9

Qu. Fill in the blank: the reported viability, T/C of O=C(c1cc(Cc2n[nH]c(=O)c3ccccc23)ccc1F)N1CCN(C(=O)C2CC2)CC1 + CN(C)c1ccc(Nc2c3ccc(NC(=O)CCN4CCCC4)cc3nc3cc(NC(=O)CCN4CCCC4)ccc23)cc1 is ____.
Ans. 68.6

The reported numbers originate from PubChem BioAssay AID2060496.
